molecular target: Tissue-type plasminogen activator (Homo sapiens, UniProt P00750)
Sequence (P00750 whole entry): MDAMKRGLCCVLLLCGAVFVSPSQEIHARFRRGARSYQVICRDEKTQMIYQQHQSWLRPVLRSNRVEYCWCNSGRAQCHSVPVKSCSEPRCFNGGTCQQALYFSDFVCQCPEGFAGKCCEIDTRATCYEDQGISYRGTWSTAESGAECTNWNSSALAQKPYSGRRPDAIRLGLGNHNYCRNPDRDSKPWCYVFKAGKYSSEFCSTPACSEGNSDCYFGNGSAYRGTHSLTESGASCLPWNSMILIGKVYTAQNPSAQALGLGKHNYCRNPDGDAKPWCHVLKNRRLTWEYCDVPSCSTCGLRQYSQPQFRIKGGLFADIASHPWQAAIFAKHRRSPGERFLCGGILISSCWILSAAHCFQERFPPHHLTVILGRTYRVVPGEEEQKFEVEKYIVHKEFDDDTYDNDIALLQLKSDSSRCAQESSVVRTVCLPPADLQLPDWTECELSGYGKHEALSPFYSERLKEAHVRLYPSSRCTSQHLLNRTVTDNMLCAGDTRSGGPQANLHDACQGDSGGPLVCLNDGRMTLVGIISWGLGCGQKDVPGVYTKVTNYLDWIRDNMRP
pKi: −log10 of the molar value.
assayMetric: pKi

# lookup: pKi of "CSc1sc(C(=N)N)cc1S(=O)(=O)c1cc(Br)c2c(c1)ncn2Cc1cc(F)ccc1F"
< 5.00

---

biological target: Complement C1s subcomponent (Homo sapiens, UniProt P09871)
Sequence (P09871 16-437 limits assumed): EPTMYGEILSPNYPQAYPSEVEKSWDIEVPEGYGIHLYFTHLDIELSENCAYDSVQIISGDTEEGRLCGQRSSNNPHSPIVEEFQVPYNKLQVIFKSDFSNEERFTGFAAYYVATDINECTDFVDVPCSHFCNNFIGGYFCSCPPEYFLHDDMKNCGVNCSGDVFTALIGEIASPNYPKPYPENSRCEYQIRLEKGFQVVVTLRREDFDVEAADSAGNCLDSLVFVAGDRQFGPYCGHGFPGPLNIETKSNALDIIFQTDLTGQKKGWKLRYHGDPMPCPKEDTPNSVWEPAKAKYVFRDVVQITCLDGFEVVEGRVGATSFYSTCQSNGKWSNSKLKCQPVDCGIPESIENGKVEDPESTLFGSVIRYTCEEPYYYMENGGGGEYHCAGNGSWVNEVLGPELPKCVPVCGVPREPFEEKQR
Sequence (P09871 438-688 limits assumed): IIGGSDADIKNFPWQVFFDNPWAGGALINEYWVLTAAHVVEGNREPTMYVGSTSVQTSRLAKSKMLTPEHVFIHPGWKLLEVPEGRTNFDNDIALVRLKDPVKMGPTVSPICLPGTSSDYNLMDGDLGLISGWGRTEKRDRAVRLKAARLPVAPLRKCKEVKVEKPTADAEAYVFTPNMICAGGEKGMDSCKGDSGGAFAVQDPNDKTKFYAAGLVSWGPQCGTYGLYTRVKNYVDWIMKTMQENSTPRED
pKi: −log10 of the molar value.
Outcome label depends on pKi relative to 6: at/above gives Fulfilled, below gives Not fulfilled.

Solved entries:
CSc1sc(C(=N)N)cc1S(=O)(=O)c1ccc2ccccc2c1; Fulfilled
CSc1sc(C(=N)N)cc1S(=O)(=O)c1cc(Br)c2ncn(Cc3c(F)cccc3F)c2c1; Fulfilled
CSc1sc(C(=N)N)cc1S(=O)(=O)c1cc(Br)c2ncn(C)c2c1; Fulfilled
CSc1sc(C(=N)N)cc1S(=O)(=O)c1cccs1; Not fulfilled

Identify whether the reported pKi of the following molecule is 6 or greater: "CSc1sc(C(=N)N)cc1S(=O)(=O)c1cc(Br)c2c(c1)ncn2C"
Fulfilled

---

molecular target: Plasminogen (Homo sapiens, UniProt P00747)
Sequence (P00747 97-580 limits assumed): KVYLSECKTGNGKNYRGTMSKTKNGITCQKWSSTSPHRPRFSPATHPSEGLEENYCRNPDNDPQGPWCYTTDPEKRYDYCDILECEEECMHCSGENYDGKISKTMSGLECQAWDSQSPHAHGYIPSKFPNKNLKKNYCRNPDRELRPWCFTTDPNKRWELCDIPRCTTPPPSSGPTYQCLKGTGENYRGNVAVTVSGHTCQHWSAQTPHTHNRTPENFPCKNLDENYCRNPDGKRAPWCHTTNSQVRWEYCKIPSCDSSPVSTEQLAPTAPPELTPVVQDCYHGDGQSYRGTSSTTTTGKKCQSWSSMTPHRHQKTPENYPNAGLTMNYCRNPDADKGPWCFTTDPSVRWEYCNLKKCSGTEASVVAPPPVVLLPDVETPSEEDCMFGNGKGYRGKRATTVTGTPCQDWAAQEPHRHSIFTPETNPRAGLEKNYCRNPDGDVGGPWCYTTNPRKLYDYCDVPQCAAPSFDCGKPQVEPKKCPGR
Sequence (P00747 581-810 limits assumed): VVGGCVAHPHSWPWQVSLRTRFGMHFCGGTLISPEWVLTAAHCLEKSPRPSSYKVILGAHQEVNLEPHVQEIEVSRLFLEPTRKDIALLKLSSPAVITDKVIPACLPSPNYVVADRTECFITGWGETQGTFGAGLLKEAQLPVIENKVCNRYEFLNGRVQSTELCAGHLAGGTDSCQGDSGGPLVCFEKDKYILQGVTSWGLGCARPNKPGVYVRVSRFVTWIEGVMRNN
pKi: −log10 of the molar value.
assayMetric: pKi

Any idea what pKi was measured for "CSc1sc(C(=N)N)cc1S(=O)(=O)c1cc(Br)c2c(c1)ncn2Cc1cc(F)ccc1F" ?
< 4.89

---

target: Complement C1s subcomponent (Homo sapiens)
Field: pKi. Provide a value for each of the molecules that follow.
Give bare numbers, as −log10 of the molar value.

Use these answered entries as a reference point.
CSc1sc(C(=N)N)cc1S(=O)(=O)c1cc(Br)c2ncn(Cc3cc(F)ccc3F)c2c1; 6.62
CSc1sc(C(=N)N)cc1S(=O)(=O)C(C)C; 4.96
CSc1sc(C(=N)N)cc1S(=O)(=O)c1cc(Br)c2c(c1)ncn2[C@H](C)c1ccccc1; 6.42
CSc1sc(C(=N)N)cc1S(=O)(=O)c1cc(Br)c2nc[nH]c2c1; 6.40
CSc1sc(C(=N)N)cc1S(=O)(=O)c1cc(Br)c2c(c1)ncn2Cc1c(Cl)cccc1Cl; 7.70
CSc1sc(C(=N)N)cc1S(=O)(=O)c1ccc2ncn(Cc3ccccc3)c2c1; 6.38
C=CCn1cnc2cc(S(=O)(=O)c3cc(C(=N)N)sc3SC)cc(Br)c21; 7.15
CSc1sc(C(=N)N)cc1S(=O)(=O)c1ccccn1; 5.64

// for each molecule below, give its pKi
1. CSc1sc(C(=N)N)cc1S(=O)(=O)c1cc(Br)c2ncn(Cc3ccccc3)c2c1
2. CSc1sc(C(=N)N)cc1S(=O)(=O)c1ccc2c(c1)ncn2Cc1ccccn1

1: 6.40; 2: 6.24
